- Measurement target: Tyrosine-protein phosphatase non-receptor type 1 (Homo sapiens)
Property: IC50; scope: individual molecules

>>> result("CC(C)C[C@H](CC(=O)[C@H](Cc1ccc(C(F)(F)C(=O)O)cc1)NC(=O)[C@H](CCC(=O)OCc1ccccc1)NC(=O)OCC1c2ccccc2-c2ccccc21)C(N)=O")
"3.1 µM"
>>> result("CC(C)C[C@H](CC(=O)[C@H](Cc1ccc(OCC(=O)O)cc1)NC(=O)[C@H](CCC(=O)OCc1ccccc1)NC(=O)CCCc1c[nH]c2ccccc12)C(N)=O")
"> 100 µM"

Continue with the molecule presented below.
input: Recorded IC50 of `CC(C)C[C@H](CC(=O)[C@H](Cc1ccc(OCC(=O)O)cc1)NC(=O)[C@H](CCC(=O)OCc1ccccc1)NC(=O)CCc1cccc2ccccc12)C(N)=O` , please.
output: 12 µM

###

- Measurement target: Tyrosine-protein phosphatase non-receptor type 1 (Homo sapiens, UniProt P18031)
- Sequence (P18031 whole entry): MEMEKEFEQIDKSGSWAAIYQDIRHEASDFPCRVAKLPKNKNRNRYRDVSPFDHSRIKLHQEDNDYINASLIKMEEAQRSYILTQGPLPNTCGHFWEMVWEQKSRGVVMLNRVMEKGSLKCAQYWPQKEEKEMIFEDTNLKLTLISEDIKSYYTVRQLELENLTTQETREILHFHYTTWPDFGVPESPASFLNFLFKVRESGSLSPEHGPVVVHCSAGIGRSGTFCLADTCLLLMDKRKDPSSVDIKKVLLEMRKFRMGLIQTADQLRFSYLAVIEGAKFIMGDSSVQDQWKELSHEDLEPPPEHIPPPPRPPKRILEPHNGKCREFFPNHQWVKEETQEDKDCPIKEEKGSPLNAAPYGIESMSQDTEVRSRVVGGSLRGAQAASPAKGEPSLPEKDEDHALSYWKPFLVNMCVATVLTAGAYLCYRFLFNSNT
pIC50: −log10 of the molar value.
Property: pIC50; scope: individual molecules

Some solved entries appear below for comparison.
>>> result("Cc1cn(CC(=O)N[C@@H](CCC(=O)OCc2ccccc2)C(=O)N[C@@H](Cc2ccc(OCC(=O)O)cc2)C(=O)C[C@@H](CC(C)C)C(N)=O)c(=O)[nH]c1=O")
"< 4.00"
>>> result("CC(C)C[C@H](CC(=O)[C@H](Cc1ccc(OCC(=O)O)cc1)NC(=O)[C@H](CCC(=O)OCc1ccccc1)NC(=O)CCc1c[nH]c2ccccc12)C(N)=O")
"< 4.00"

Continue with the molecule presented below.
input: Recorded pIC50 of `COc1ccc(Cn2nnc(CC(=O)N[C@@H](CCC(=O)OCc3ccccc3)C(=O)N[C@@H](Cc3ccc(OCC(=O)O)cc3)C(=O)C[C@@H](CC(C)C)C(N)=O)n2)cc1` , please.
output: < 4.00

###

- Measurement target: Secreted effector protein (Yersinia pestis)
- Sequence (O68720 whole entry): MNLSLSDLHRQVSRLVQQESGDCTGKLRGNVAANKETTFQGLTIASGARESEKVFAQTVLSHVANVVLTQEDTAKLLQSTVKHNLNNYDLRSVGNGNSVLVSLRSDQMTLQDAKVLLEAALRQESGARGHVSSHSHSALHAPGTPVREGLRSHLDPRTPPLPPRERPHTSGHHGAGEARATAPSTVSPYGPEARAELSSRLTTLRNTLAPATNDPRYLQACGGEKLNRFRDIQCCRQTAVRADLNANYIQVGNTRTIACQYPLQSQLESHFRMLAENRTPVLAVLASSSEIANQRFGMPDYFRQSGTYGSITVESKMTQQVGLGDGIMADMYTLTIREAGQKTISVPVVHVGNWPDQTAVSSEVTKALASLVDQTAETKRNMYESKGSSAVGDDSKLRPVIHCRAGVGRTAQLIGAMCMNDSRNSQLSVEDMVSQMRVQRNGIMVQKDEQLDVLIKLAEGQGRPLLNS
- Test name: Inhibitory concentration against Yersinia pestis YopH expressed in Escherichia coli BL21 cells
pIC50: −log10 of the molar value.
Quantity kind: pIC50

Some solved entries appear below for comparison.
>>> result("CC(C)C[C@H](CC(=O)[C@H](Cc1ccc(OCC(=O)O)cc1)NC(=O)[C@H](CCC(=O)OCc1ccccc1)NC(=O)CCCc1c[nH]c2ccccc12)C(N)=O")
"< 4.00"
>>> result("Cc1cn(CC(=O)N[C@@H](CCC(=O)OCc2ccccc2)C(=O)N[C@@H](Cc2ccc(OCC(=O)O)cc2)C(=O)C[C@@H](CC(C)C)C(N)=O)c(=O)[nH]c1=O")
"< 4.00"

Continue with the compound presented below.
input: Recorded pIC50 of `CC(C)C[C@H](CC(=O)[C@H](Cc1ccc(OCC(=O)O)cc1)NC(=O)[C@H](CCC(=O)OCc1ccccc1)NC(=O)CCc1c[nH]c2ccccc12)C(N)=O` , please.
output: < 4.00
